- ASSAY_TARGET: human CYP4F2 (Homo sapiens (Human))
- ASSAY_INFO: Inhibition test against 20-HETE producing enzyme CYP4F2 (luciferine derivative, luminescence)
- Format: biochemical
- SETUP_CONDITIONS: E. coli membrane fraction expressing human CYP4F2, 2.5 μM luciferine derivative, room temperature 60 minutes
pIC50: −log10 of the molar value.
Rule: pIC50 under 5 gives not met, otherwise met.

[ask] Record O=C(O)c1cccc(-c2cccc(COc3ccc(-c4ccn[nH]4)nc3)c2)c1 [Example 31-1] ; criterion: pIC50 no lower than 5. Met?
[reply] met

[ask] API: above_or_equal(metric=pIC50, cutoff=5) for item CC(C)(CCCCCCCCOc1ccc(-c2ccn[nH]2)nc1)C(=O)O [Example 1-63]
[reply] met

[ask] Is it the case that O=C(O)C1CCC(COc2ccc(-c3ccn[nH]3)nc2)CC1 (stereo not drawn) [Example 1-49] has pIC50 reaching or exceeding 5?
[reply] not met

[ask] Entry O=C(O)C1(OCCCCCCCOc2ccc(-c3ccn[nH]3)nc2)CCCC1 [Example 2-3] : is its pIC50 no less than 5?
[reply] met

[ask] Hi team, for O=C(O)C1CC1CCCOc1ccc(-c2ccn[nH]2)nc1 (stereo not drawn) [Example 1-28] , is the recorded pIC50 at or above 5?
[reply] not met

[ask] Can O=C(CCCC1(C(=O)O)CCCC1)N1CCC[C@@H](COc2ccc(-c3ccn[nH]3)nc2)C1 [Example 3-2] be said to have pIC50 at or above 5?
[reply] met

[ask] Does O=C(O)CCNC(=O)c1cc(COc2ccc(-c3ccn[nH]3)nc2)ccn1 [Example 49-1] have a reported pIC50 of at least 5?
[reply] met

[ask] Answer whether pIC50 of CC(C)(CC(=O)N1CCCC(CCCOc2ccc(-c3ccn[nH]3)nc2)C1)C(=O)O (stereo not drawn) [Example 1-32] is greater than or equal to 5.
[reply] met

====

Exercise: for every item that follows, state its recorded pIC50.
- ASSAY_TARGET: human CYP4F2 (Homo sapiens (Human))
- ASSAY_INFO: Inhibition test against 20-HETE producing enzyme CYP4F2 (luciferine derivative, luminescence)
- Format: biochemical
- SETUP_CONDITIONS: E. coli membrane fraction expressing human CYP4F2, 2.5 μM luciferine derivative, room temperature 60 minutes
- Description: (1) Inhibition Test for Each Compound of the Present Invention Against 20-HETE Producing Enzymes (CYP4F2 and CYP4A11) […] A: Luminescence value with addition of compound B: Luminescence value without addition of compound and enzyme
Remember, pIC50 is on a log scale: it is -log10 of the molar concentration.

[ask] What pIC50 value was documented for this molecule, O=C1NC(=O)C(CCCCOc2ccc(-c3ccn[nH]3)nc2)O1 (stereo not drawn) ?
[reply] 4.92

[ask] Would you mind telling me what pIC50 value was observed for O=C(O)c1cnc(-c2cccc(COc3ccc(-c4ccn[nH]4)nc3)c2)cn1 ?
[reply] 6.31

[ask] Look up pIC50: O=C(O)c1ccc(CCCOc2ccc(-c3ccn[nH]3)nc2)cc1
[reply] 5.59

[ask] Can you look up the measured pIC50 of COc1ccc(COc2ccc(-c3ccn[nH]3)nc2)cc1C(=O)O for me?
[reply] 4.62

[ask] For the molecule shown here, OCC(F)(F)c1cccc(COc2ccc(-c3ccn[nH]3)nc2)c1 , give the reported pIC50.
[reply] 6.89

[ask] Can you look up the measured pIC50 of NS(=O)(=O)CCCCCOc1ccc(-c2ccn[nH]2)nc1 for me?
[reply] 5.89

[ask] Report pIC50 for CNS(=O)(=O)c1cccc(COc2ccc(-c3ccn[nH]3)nc2)c1 please.
[reply] 6.66

[ask] Value lookup for pIC50; key = O=C(O)C1CCCC(c2cccc(COc3ccc(-c4ccn[nH]4)nc3)c2)C1 (stereo not drawn)
[reply] 6.07

[ask] For the molecule O=C(O)c1cccc(-c2cccc(COc3ccc(-c4ccn[nH]4)nc3)c2)n1 , what pIC50 is on record?
[reply] 6.34

[ask] Fill in the blank: the reported pIC50 of O=C(O)C1CCCC(COc2ccc(-c3ccn[nH]3)nc2)C1 (stereo not drawn) is ____.
[reply] 5.47

[ask] // returns reported pIC50 for input O=C(CCc1cccc(COc2ccc(-c3ccn[nH]3)nc2)c1)NCCO
[reply] 7.02

[ask] Which pIC50 is reported for this molecule? Oc1cc(CCCOc2ccc(-c3ccn[nH]3)nc2)cc(F)c1F
[reply] 8.29

[ask] // query pIC50 value for entry O=C(O)C1CCCC(CCCOc2ccc(-c3ccn[nH]3)nc2)C1 (stereo not drawn)
[reply] 6.44

[ask] Please report the recorded pIC50 for O=C(O)CCc1ccc(COc2ccc(-c3ccn[nH]3)nc2)cc1 .
[reply] 6.66

[ask] Please give the measured pIC50 for this molecule: O=C(O)C1(CCCCCCCCOc2ccc(-c3ccn[nH]3)nc2)CCOCC1
[reply] 7.62

[ask] Entry COc1cc(COc2ccc(-c3ccn[nH]3)nc2)ccc1C(=O)O : reported pIC50 = ?
[reply] 4.72

[ask] Reported pIC50, molecule O=C(O)c1cccc(CCCOc2ccc(-c3ccn[nH]3)nc2)n1 : ____
[reply] 5.40

[ask] Could you tell me which pIC50 is on file for O=C(CCC1(C(=O)O)CCCC1)N1CCC(CCOc2ccc(-c3ccn[nH]3)nc2)CC1 ?
[reply] 5.64

====

- ASSAY_TARGET: human CYP4F2 (Homo sapiens (Human), UniProt P78329)
- Sequence (P78329 5-520): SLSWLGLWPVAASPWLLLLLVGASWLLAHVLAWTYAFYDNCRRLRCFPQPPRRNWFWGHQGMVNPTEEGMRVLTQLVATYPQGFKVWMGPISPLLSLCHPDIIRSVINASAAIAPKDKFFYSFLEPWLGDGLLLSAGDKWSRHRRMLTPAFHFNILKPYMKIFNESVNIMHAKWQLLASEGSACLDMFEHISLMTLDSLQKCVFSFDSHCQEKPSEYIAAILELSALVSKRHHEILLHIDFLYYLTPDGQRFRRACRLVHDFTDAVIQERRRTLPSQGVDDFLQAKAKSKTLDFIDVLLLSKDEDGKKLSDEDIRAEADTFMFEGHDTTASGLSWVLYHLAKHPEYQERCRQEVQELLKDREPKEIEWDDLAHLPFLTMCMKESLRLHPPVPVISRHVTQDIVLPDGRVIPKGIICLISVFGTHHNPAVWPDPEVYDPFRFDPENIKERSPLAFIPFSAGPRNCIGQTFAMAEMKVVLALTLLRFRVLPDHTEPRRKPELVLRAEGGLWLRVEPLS
- ASSAY_INFO: Inhibition test against 20-HETE producing enzyme CYP4F2 (luciferine derivative, luminescence)
- Format: biochemical
- SETUP_CONDITIONS: E. coli membrane fraction expressing human CYP4F2, 2.5 μM luciferine derivative, room temperature 60 minutes
ATTRIBUTE_MEASURED: IC50 (nM)
The figure you give is taken to be in nM; do not add the unit.

[ask] Test system human CYP4F2 (Homo sapiens (Human), UniProt P78329); read-out IC50; what value for O=C(O)CCc1cccc(COc2cnc(-c3ccn[nH]3)c(F)c2)c1 ?
[reply] 1100

[ask] Please tell me: IC50 of O=C(O)C1CCCN(c2cccc(COc3ccc(-c4ccn[nH]4)nc3)c2)C1 (centres unmarked) , system human CYP4F2 (Homo sapiens (Human), UniProt P78329)?
[reply] 11000

[ask] Please provide the recorded IC50 for COC(=O)N1CCC(O)(c2cccc(COc3ccc(-c4ccn[nH]4)nc3)c2)CC1 , tested on human CYP4F2 (Homo sapiens (Human), UniProt P78329).
[reply] 3

[ask] What is its IC50 for human CYP4F2 (Homo sapiens (Human), UniProt P78329)? Entry: O=C(O)C1CCc2cc(COc3ccc(-c4ccn[nH]4)nc3)ccc2O1 (centres unmarked)
[reply] 3000

[ask] // fetch human CYP4F2 (Homo sapiens (Human), UniProt P78329) IC50 for CCS(=O)(=O)NCC(=O)N1CCC[C@@H](COc2ccc(-c3ccn[nH]3)nc2)C1
[reply] 550

[ask] Param readout = IC50; param system = human CYP4F2 (Homo sapiens (Human), UniProt P78329); param query = O=C(O)Cc1cccc(CCCOc2ccc(-c3ccn[nH]3)nc2)c1 ; response: value
[reply] 430

[ask] For human CYP4F2 (Homo sapiens (Human), UniProt P78329), provide IC50 of CNS(=O)(=O)c1cccc(CN(C)S(=O)(=O)c2cccc(COc3ccc(-c4ccn[nH]4)nc3)c2)c1 please.
[reply] 3

[ask] Form field: IC50 recorded for O=C(O)C1CCc2ccc(COc3ccc(-c4ccn[nH]4)nc3)cc2O1 (centres unmarked) with human CYP4F2 (Homo sapiens (Human), UniProt P78329) (enter value)
[reply] 140

====

- ASSAY_TARGET: UniProt:Q02928
- Sequence (Q02928 5-519): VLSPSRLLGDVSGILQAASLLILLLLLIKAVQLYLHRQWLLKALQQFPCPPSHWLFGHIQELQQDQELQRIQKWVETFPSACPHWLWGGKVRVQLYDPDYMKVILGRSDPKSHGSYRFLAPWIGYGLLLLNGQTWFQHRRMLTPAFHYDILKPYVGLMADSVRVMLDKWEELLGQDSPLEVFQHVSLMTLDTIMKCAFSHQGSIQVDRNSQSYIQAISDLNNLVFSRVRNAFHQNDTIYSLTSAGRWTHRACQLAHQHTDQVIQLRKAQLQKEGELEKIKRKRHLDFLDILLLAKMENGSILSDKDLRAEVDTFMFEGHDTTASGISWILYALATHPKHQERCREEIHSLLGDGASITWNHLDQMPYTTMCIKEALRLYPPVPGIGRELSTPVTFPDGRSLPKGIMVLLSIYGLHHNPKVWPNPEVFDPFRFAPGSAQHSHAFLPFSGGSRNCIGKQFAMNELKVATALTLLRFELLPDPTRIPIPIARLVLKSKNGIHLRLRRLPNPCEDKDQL
- ASSAY_INFO: Inhibition test against 20-HETE producing enzyme CYP4A11 (luciferine derivative, luminescence)
- Type: biochemical
- SETUP_CONDITIONS: human CYP4A11, luciferine derivative, luminescence
ATTRIBUTE_MEASURED: IC50 (nM)
Quick reminder: number only, in nM, skip the unit.

[ask] Form field: IC50 recorded for O=C(O)C1(Cc2cccc(COc3ccc(-c4ccn[nH]4)nc3)c2F)CC1 [Example 72-7] with UniProt:Q02928 (enter value)
[reply] 14

[ask] What is its IC50 for UniProt:Q02928? Entry: O=C(O)C1CCN(C(=O)c2cccc(COc3ccc(-c4ccn[nH]4)nc3)c2)CC1 [Example 45-27]
[reply] 510

[ask] Hi! What's the reported IC50 for O=C(O)C1(Cc2cccc(CCOc3ccc(-c4ccn[nH]4)nc3)c2F)COC1 [Example 71-27] on UniProt:Q02928?
[reply] 94

[ask] Quick check: IC50 on UniProt:Q02928, item O=C(O)[C@@H]1CCc2ccc(CCOc3ccc(-c4ccn[nH]4)nc3)cc2O1 [Example 71-22-2] ?
[reply] 1000

[ask] # returns recorded IC50 (system: UniProt:Q02928) for O=C(O)C1CC1c1ccc(F)c(CCOc2ccc(-c3ccn[nH]3)nc2)c1 (single isomer, unassigned) [Example 74-8]
[reply] 77

[ask] Can you look up IC50 on UniProt:Q02928 for O=C(O)[C@@H]1CCc2cc(CCOc3ccc(-c4ccn[nH]4)nc3)ccc2O1 [Example 71-8-1] ?
[reply] 1000

[ask] Return IC50 measured with UniProt:Q02928 given this compound: O=C(O)C1CC1c1ccc(CCOc2ccc(-c3ccn[nH]3)nc2)c(F)c1 (centres unmarked) [Example 71-16]
[reply] 190

[ask] API: value(readout= IC50, system= UniProt:Q02928, query= O=C(O)C1(Cc2cccc(COc3ccc(-c4ccn[nH]4)nc3)c2F)COC1 [Example 71-26] )
[reply] 39

[ask] Query the reported IC50 for UniProt:Q02928; item: C[C@@H](CO)NC(=O)CCc1cccc(COc2ccc(-c3ccn[nH]3)nc2)c1 [Example 43-7]
[reply] 320

[ask] Item O=C(N[C@@H](Cc1ccccc1)C(=O)O)c1cccc(COc2ccc(-c3ccn[nH]3)nc2)c1 [Example 45-11] with UniProt:Q02928 - IC50?
[reply] 23

[ask] Form field: IC50 recorded for O=C(O)c1cnn2c1CN(C(=O)c1cccc(COc3ccc(-c4ccn[nH]4)nc3)c1)CC2 [Example 45-44] with UniProt:Q02928 (enter value)
[reply] 110

[ask] Lookup: IC50 / UniProt:Q02928 / CC[C@H](OCCCCCCCOc1ccc(-c2ccn[nH]2)nc1)C(=O)O [Example 71-2-2]
[reply] 87

[ask] State its IC50 on UniProt:Q02928: O=C(CCc1cccc(COc2ccc(-c3ccn[nH]3)nc2)c1)N1CC(F)C1 [Example 43-1]
[reply] 58

[ask] Write down the reported IC50 of O=C(O)[C@@H]1CCc2ccc(COc3ccc(-c4ccn[nH]4)nc3)cc2C1 [Example 69-1-1] , test system: UniProt:Q02928.
[reply] 21

[ask] # value lookup — system UniProt:Q02928, readout IC50, item CC(C)(COc1ccc(CCCOc2ccc(-c3ccn[nH]3)nc2)cn1)C(=O)O [Example 71-39]
[reply] 780

[ask] Return IC50 measured with UniProt:Q02928 given this compound: O=C(CCc1cccc(COc2ccc(-c3ccn[nH]3)nc2)c1)NC[C@H]1CCCO1 [Example 43-13]
[reply] 48

[ask] Form field - read-out: IC50; system: UniProt:Q02928; submitted item: O=C(O)C1(CCCCCCCCOc2ccc(-c3ccn[nH]3)nc2)COC1 [Example 72-3]
[reply] 130
